# test method notes: Pharmacokinetic study after oral administration in rats
# Assay type: in vivo, male Wistar rats
# run parameters: Wistar, rat, plasma; oral 18 mg/kg, male adult rats, mean ± SEM, n = 3
assay readout: Cmax (ng/mL)
Write the number in ng/mL without appending the unit.

Problem: Return Cmax for the following compound: `Fc1ccc(-n2cc(-c3nn[nH]n3)cn2)cc1`
Result: 26600

====

# test method notes: Pharmacokinetic study after oral administration in rats
# Type: in vivo, male Wistar rats
# run parameters: Wistar, rat, plasma; oral 36 mg/kg, male adult rats, mean ± SEM, n = 3
assay readout: AUC(0-t) (µg·h/mL)
Write the number in µg·h/mL without appending the unit.

Problem: Return AUC(0-t) for the following compound: `Fc1ccc(-n2cc(-c3nn[nH]n3)cn2)cc1`
Result: 287

====

# test method notes: Pharmacokinetic study after oral administration in rats
# Type: in vivo, male Wistar rats
# run parameters: Wistar, rat, plasma; oral 18 mg/kg, male adult rats, mean ± SEM, n = 3; read-out: t1/2 (converted)
assay readout: half-life (h)
Write the number in h without appending the unit.

Problem: Return half-life for the following molecule: `Fc1ccc(-n2cc(-c3nn[nH]n3)cn2)cc1`
Result: 5.85

====

# test method notes: Pharmacokinetic study after intravenous bolus administration in rats
# Assay type: in vivo, male Wistar rats
# run parameters: male, Wistar, rat, plasma, iv, 10 mg/kg, i.v. 10 mg/kg, male adult rats, mean ± SEM, n = 3
assay readout: AUC(0-t) (µg·h/mL)
Write the number in µg·h/mL without appending the unit.

Problem: Return AUC(0-t) for the following molecule: Fc1ccc(-n2cc(-c3nn[nH]n3)cn2)cc1 [LQFM020]
Result: 1220

====

# test method notes: Pharmacokinetic study after oral administration in rats
# Format: in vivo, male Wistar rats
# run parameters: Wistar, rat, plasma; oral 36 mg/kg, male adult rats, mean ± SEM, n = 3
assay readout: Tmax (h)
Write the number in h without appending the unit.

Problem: Return Tmax for the following compound: `Fc1ccc(-n2cc(-c3nn[nH]n3)cn2)cc1`
Result: 1.67

====

# test method notes: Pharmacokinetic study after oral administration in rats
# Format: in vivo, male Wistar rats
# run parameters: Wistar, rat, plasma; oral 9 mg/kg, male adult rats, mean ± SEM, n = 3
assay readout: AUC(0-t) (ng·h/mL)
Write the number in ng·h/mL without appending the unit.

Problem: Return AUC(0-t) for the following compound: `Fc1ccc(-n2cc(-c3nn[nH]n3)cn2)cc1`
Result: 69800
